assay: Cytotoxicity in MRC5 cells without virus infection (CCK8); assay type: cell-based; settings: human
Measurement label: CC50 at 4 days

Ask: Recorded CC50 at 4 days of "CN(C)C(=O)CN1CCN(c2cnc3c(cc(C(=O)NCc4ccc(Cl)cc4)c(=O)n3CC(=O)N3CC(C)(F)C3)n2)C1=O" , please.
Reply: > 40 µM

Ask: Dear colleague, I am looking for the recorded CC50 at 4 days of the following compound: "CN1C(=O)CN(c2cnc3c(cc(C(=O)NCc4ccc(Cl)cc4)c(=O)n3CC(=O)N3CC(C)(F)C3)n2)C1=O"
Reply: > 40 µM

Ask: # lookup: CC50 at 4 days of "CC1(F)CN(C(=O)Cn2c(=O)c(C(=O)NCc3ccc(Cl)cc3)cc3nc(N4CCNC4=O)cnc32)C1"
Reply: > 40 µM

Ask: Reported CC50 at 4 days, compound "CC(=O)N(C)CCN1CCN(c2cnc3c(cc(C(=O)NCc4ccc(Cl)cc4)c(=O)n3CC(=O)N3CC(C)(F)C3)n2)C1=O" : ____
Reply: > 40 µM

Ask: Fill blank: measured CC50 at 4 days of the compound "O=C(O)CN1CCN(c2cnc3c(cc(C(=O)NCc4ccc(Cl)cc4)c(=O)n3CC(=O)N3CC4(CC4)C3)n2)C1=O" is ____.
Reply: > 40 µM

Ask: Consider the compound "CC1(C)CN(C(=O)Cn2c(=O)c(C(=O)NCc3ccc(Cl)cc3)cc3cc(N4CCN(CC(=O)O)C4=O)cnc32)C1" and give its measured CC50 at 4 days.
Reply: > 40 µM

Ask: Please look up its CC50 at 4 days: "NCCN1CCN(c2cnc3c(cc(C(=O)NCc4ccc(Cl)cc4)c(=O)n3CC(=O)N3CC4(CC4)C3)n2)C1=O"
Reply: 18 µM

----------
assay: Cytotoxicity in MRC5 cells without virus infection (CCK8); type: cell-based; details: human
Measurement label: CC50 at 4 days

Ask: Please report the recorded CC50 at 4 days for "CC1(C)CN(C(=O)Cn2c(=O)c(C(=O)NCc3ccc(Cl)cc3)cc3nc(N4CCN(C(C)(C)C(=O)O)C4=O)cnc32)C1" .
Reply: > 40 µM

Ask: Quick check: CC50 at 4 days of "CC(=O)NCCN1CCN(c2cnc3c(cc(C(=O)NCc4ccc(Cl)cc4)c(=O)n3CC(=O)N3CC(C)(F)C3)n2)C1=O" ?
Reply: > 40 µM

Ask: Which CC50 at 4 days is reported for this compound? "CC1(F)CN(C(=O)Cn2c(=O)c(C(=O)NCc3ccc(Cl)cc3)cc3nc(N4CCCC4=O)cnc32)C1"
Reply: < 20 µM

Ask: I have this compound here, CC(C(=O)O)N1CCN(c2cnc3c(cc(C(=O)NCc4ccc(Cl)cc4)c(=O)n3CC(=O)N3CC(C)(C)C3)n2)C1=O (stereo not shown) , and I need its recorded CC50 at 4 days.
Reply: > 40 µM

----------
Please respond with reported CC50 at 4 days for every item in the list.
assay: Cytotoxicity in MRC5 cells without virus infection (CCK8); type: cell-based; details: human

Ask: Report CC50 at 4 days for CC1(F)CN(C(=O)Cn2c(=O)c(C(=O)NCc3ccc(Cl)cc3)cc3nc(N4CCN(CCC(=O)O)C4=O)cnc32)C1 [Compound 18] please.
Reply: > 40 µM

Ask: // returns reported CC50 at 4 days for input CC1(F)CN(C(=O)Cn2c(=O)c(C(=O)NCc3ccc(Cl)cc3)cc3nc(N4CCN(CC(=O)N5CCC5)C4=O)cnc32)C1 [Compound 28]
Reply: > 40 µM

Ask: // lookup CC50 at 4 days for CC1(F)CN(C(=O)Cn2c(=O)c(C(=O)NCc3ccc(Cl)cc3)cc3nc(N4CCN(CCN)C4=O)cnc32)C1 [Compound 6]
Reply: > 40 µM

Ask: Consider the compound shown here: CC1(F)CN(C(=O)Cn2c(=O)c(C(=O)NCc3ccc(Cl)cc3)cc3nc(N4CC(=O)NC4=O)cnc32)C1 [Compound 41] What is its recorded CC50 at 4 days?
Reply: 23 µM

Ask: Report CC50 at 4 days for CC1(F)CN(C(=O)Cn2c(=O)c(C(=O)NCc3ccc(Cl)cc3)cc3nc(N4CCOC4=O)cnc32)C1 [Compound 2] please.
Reply: < 40 µM

Ask: Request the reported CC50 at 4 days associated with CN(C)CCN1CCN(c2cnc3c(cc(C(=O)NCc4ccc(Cl)cc4)c(=O)n3CC(=O)N3CC(C)(F)C3)n2)C1=O [Compound 42]
Reply: > 40 µM

Ask: // CC50 at 4 days lookup, key: CC1(F)CN(C(=O)Cn2c(=O)c(C(=O)NCc3ccc(Cl)cc3)cc3nc(N4CCN(CC(N)=O)C4=O)cnc32)C1 [Compound 40]
Reply: > 40 µM
